tested-on: Cathepsin K (Homo sapiens, UniProt P43235)
method-notes: Inhibitory activity against humanized rabbit Cathepsin K
pIC50: −log10 of the molar value.
endpoint-label: pIC50

# count of solved cases: 4
| compound | pIC50 |
| --- | --- |
| CSc1ccc(S(=O)(=O)C[C@@H]2CCCC[C@H]2C(=O)NCC#N)cc1 (mixture of isomers) | 8.30 |
| COc1cccc(SC[C@@H]2CCCC[C@H]2C(=O)NCC#N)c1 (racemic) | 6.43 |
| N#CCNC(=O)[C@@H]1CCCC[C@H]1CSc1cccc(N)c1 (racemic) | 6.15 |
| N#CCNC(=O)[C@@H]1CCCC[C@H]1CSc1ccc(O)cc1 (racemic) | 7.68 |

[A] CSc1ccc(-c2ccccc2[C@@H]2CCC(F)(F)C[C@H]2C(=O)NCC#N)cc1
[B] N#CCNC(=O)[C@@H]1CCCC[C@H]1CSc1cc(Cl)c(Cl)cc1Cl (racemic)
[C] N#CCNC(=O)[C@@H]1CCCC[C@H]1CSc1ccc(F)cc1 (mixture of isomers)
[D] CSc1ccc(-c2ccccc2C2CCC(F)CC2C(=O)NCC#N)cc1 (racemic; form 2)
[E] N#CCNC(=O)[C@@H]1CCCC[C@H]1CSc1ccc(I)cc1 (relative stereo)
q: Thanks in advance: please rank these 5 entries by pIC50, highest to lowest. Put the labels in the order asked and list them.
a: A, D, E, C, B
(A: 9.55, D: 8.43, E: 7.77, C: 7.52, B: 6.34)

* * *

method-notes: Half life in dog at 5 mL/kg, po
Format: ADME, organism-based, Canis lupus familiaris
condition-set: in vivo
endpoint-label: half-life (h)
Answer format: numeric, h implied, no suffix.

q: State the recorded half-life for this entry: CSc1ccc(-c2ccccc2[C@@H]2CCC(F)(F)C[C@H]2C(=O)NCC#N)cc1
a: 15

* * *

method-notes: Oral bioavailability in dogs at 5 mL/kg, po
Format: ADME, organism-based, Canis lupus familiaris
condition-set: dog, in vivo
endpoint-label: bioavailability (%)
Answer format: numeric, % implied, no suffix.

q: State the recorded bioavailability for this entry: CSc1ccc(-c2ccccc2[C@@H]2CCC(F)(F)C[C@H]2C(=O)NCC#N)cc1
a: 55

* * *

tested-on: Cathepsin K (Homo sapiens, UniProt P43235)
method-notes: Inhibitory activity against human Cathepsin K
Sequence (P43235 whole entry): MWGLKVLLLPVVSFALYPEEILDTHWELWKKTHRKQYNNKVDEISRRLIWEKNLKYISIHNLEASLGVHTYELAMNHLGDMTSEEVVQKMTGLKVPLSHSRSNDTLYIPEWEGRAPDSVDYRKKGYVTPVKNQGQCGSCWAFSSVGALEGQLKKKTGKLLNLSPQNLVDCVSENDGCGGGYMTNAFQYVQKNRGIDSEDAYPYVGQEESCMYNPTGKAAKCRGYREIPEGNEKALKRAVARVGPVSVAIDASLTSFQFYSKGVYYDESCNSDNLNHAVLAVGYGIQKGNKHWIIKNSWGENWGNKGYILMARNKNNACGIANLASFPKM
endpoint-label: IC50 (nM)

# count of solved cases: 3
| compound | unit-of-measurement | IC50 |
| --- | --- | --- |
| N#CCNC(=O)[C@@H]1CCCC[C@H]1SCc1ccccc1 (racemic) | nM | 52 |
| N#CCNC(=O)C1(NC(=O)c2ccccc2)CCCCC1 | nM | 78 |
| N#CCNC(=O)C1=CCCCC1 | nM | 3400 |

[I] N#CCNC(=O)[C@@H]1CCCC[C@H]1CSc1ccccc1 (racemic)
[II] N#CCNC(=O)[C@@H]1CCCC[C@@H]1SCc1ccccc1 (racemic)
q: Field: lower recorded IC50 (choose I or II ) I would appreciate it if you answered with the label of your choice.
a: I
(I: 140 nM, II: 280 nM)

* * *

tested-on: UniProtKB P43235
method-notes: Inhibitory activity against humanized rabbit Cathepsin K
endpoint-label: IC50 (µM)

# count of solved cases: 2
| compound | tested-on | unit-of-measurement | IC50 |
| --- | --- | --- | --- |
| N#CCNC(=O)[C@@H]1CCCC[C@H]1CSc1nccs1 (racemic) | UniProtKB P43235 | µM | 0.49 |
| N#CCNC(=O)C1CC(F)(F)CCC1c1ccccc1-c1ccc(F)cc1 (racemic) | UniProtKB P43235 | µM | 0.036 |

[P] N#CCNC(=O)[C@@H]1CCCC[C@H]1CSc1ccc(N)cc1 (mixture of isomers)
[Q] N#CCNC(=O)[C@@H]1CCCC[C@H]1CSc1ccc(Br)cc1 (racemic)
[R] N#CCNC(=O)[C@@H]1CCCC[C@H]1CSc1nc2ccccc2o1 (racemic)
[S] N#CCNC(=O)[C@@H]1CCCC[C@H]1CSc1cccc(Br)c1 (mixture of isomers)
q: Thanks in advance: please rank these 4 entries by IC50, highest to lowest. Put the labels in the order asked and list them.
a: R, S, P, Q

[a] N#CCNC(=O)[C@@H]1CCCC[C@H]1CSc1cccc(F)c1 (racemic)
[b] CSc1ccc(-c2ccccc2C2CCC(F)CC2C(=O)NCC#N)cc1 (racemic; form 1)
q: Determine, for a and b , which has the greater value of IC50. I would appreciate it if you answered with the label of your choice.
a: a

* * *

method-notes: Plasma clearance in rat at 10 mL/kg, po
Type: ADME, organism-based
condition-set: Sprague-Dawley
endpoint-label: CL/F (mL/min/kg)

# count of solved cases: 3
| molecule | CL/F, mL/min/kg |
| --- | --- |
| CSc1ccc(-c2ccccc2C2CCC(Cl)(Cl)CC2C(=O)NCC#N)cc1 (racemic) | 51 |
| CSc1ccc(-c2ccccc2[C@@H]2CCC(F)(F)C[C@H]2C(=O)NCC#N)cc1 | 8.7 |
| N#CCNC(=O)C1CC(F)(F)CCC1c1ccccc1-c1ccc(F)cc1 (racemic) | 37 |

[A] CSc1ccc(-c2ccccc2C2CCC(F)CC2C(=O)NCC#N)cc1 (racemic; form 1)
[B] CSc1ccc(-c2ccccc2C2CCC(F)(F)CC2C(=O)NCC#N)cc1 (racemic)
q: Determine, for A and B , which has the greater value of CL/F. I would appreciate it if you answered with the label of your choice.
a: A
(A: 25 mL/min/kg, B: 15 mL/min/kg)

* * *

method-notes: Half life in rat at 1 mL/kg, iv
condition-set: Sprague-Dawley, in vivo
endpoint-label: half-life (min)

| compound | unit-of-measurement | half-life |
| --- | --- | --- |
| CSc1ccc(-c2ccccc2[C@@H]2CCCC[C@H]2C(=O)NCC#N)cc1 (racemic) | min | 44 |

[a] N#CCNC(=O)[C@@H]1CCCC[C@H]1CS(=O)(=O)c1ccc(OC(F)(F)F)cc1 (racemic)
[b] CSc1ccc(S(=O)(=O)C[C@@H]2CCCC[C@H]2C(=O)NCC#N)cc1 (mixture of isomers)
[c] N#CCNC(=O)[C@@H]1CCCC[C@H]1c1ccccc1-c1ccc(F)cc1 (racemic)
q: Order by half-life, ascending. Put the labels in the order asked and list them.
a: b, a, c
(b: 5 min, a: 20 min, c: 45 min)

* * *

tested-on: Cathepsin K (Homo sapiens, UniProt P43235)
method-notes: Inhibitory activity against humanized rabbit Cathepsin K
endpoint-label: IC50 (nM)

| compound | unit-of-measurement | IC50 |
| --- | --- | --- |
| CSc1ccc(-c2ccccc2C2CCC(F)(F)CC2C(=O)NCC#N)cc1 (racemic) | nM | 0.46 |
| N#CCNC(=O)[C@@H]1CCCC[C@H]1CSc1ccc(Cl)cc1Cl (mixture of isomers) | nM | 110 |
| N#CCNC(=O)[C@@H]1CCCC[C@H]1CSc1nc2ccccc2s1 (racemic) | nM | 200 |

[A] Cc1ccc(SC[C@@H]2CCCC[C@H]2C(=O)NCC#N)cc1 (racemic)
[B] COc1ccc(SC[C@@H]2CCCC[C@H]2C(=O)NCC#N)cc1 (racemic)
q: Determine, for A and B , which has the greater value of IC50. I would appreciate it if you answered with the label of your choice.
a: A

* * *

tested-on: Cathepsin (S and K) (Homo sapiens) (UniProt P25774+P43235)
method-notes: Selectivity for Cathepsin S over Cathepsin K
Assay type: protein assay
endpoint-label: Selectivity ratio

| molecule | endpoint-label | measurement |
| --- | --- | --- |
| N#CCNC(=O)[C@@H]1CCCC[C@H]1CSc1ccc(O)cc1 (racemic) | Selectivity ratio | 110 |
| CSc1ccc(SC[C@@H]2CCCC[C@H]2C(=O)NCC#N)cc1 (racemic) | Selectivity ratio | 3200 |
| Cc1ccc(SC[C@@H]2CCCC[C@H]2C(=O)NCC#N)cc1 (racemic) | Selectivity ratio | 180 |
| CSc1ccc(-c2ccccc2C2CCC(F)(F)CC2C(=O)NCC#N)cc1 (racemic) | Selectivity ratio | 1100 |
| N#CCNC(=O)[C@@H]1CCCC[C@H]1CSc1ccccc1 (racemic) | Selectivity ratio | 28 |

[A] CSc1ccc(S(=O)(=O)C[C@@H]2CCCC[C@H]2C(=O)NCC#N)cc1 (mixture of isomers)
[B] COc1ccc(SC[C@@H]2CCCC[C@H]2C(=O)NCC#N)cc1 (racemic)
q: Field: lower recorded Selectivity ratio (choose A or B ) I would appreciate it if you answered with the label of your choice.
a: B
(B: 960, A: 1800)

[1] CSc1ccc(-c2ccccc2C2CCC(F)CC2C(=O)NCC#N)cc1 (racemic; form 1)
[2] CSc1ccc(-c2ccccc2[C@@H]2CCC(F)(F)C[C@H]2C(=O)NCC#N)cc1
q: Field: lower recorded Selectivity ratio (choose 1 or 2 ) I would appreciate it if you answered with the label of your choice.
a: 2

[1] N#CCNC(=O)[C@@H]1CCCC[C@H]1CSc1ccc(Cl)cc1 (racemic)
[2] CSc1ccc(-c2ccccc2C2CCC(Cl)(Cl)CC2C(=O)NCC#N)cc1 (racemic)
[3] N#CCNC(=O)[C@@H]1CCCC[C@H]1CSc1ccc(N)cc1 (mixture of isomers)
q: Order by Selectivity ratio, ascending. Put the labels in the order asked and list them.
a: 2, 3, 1

[I] CSc1ccc(-c2ccccc2C2CCC(F)CC2C(=O)NCC#N)cc1 (racemic; form 2)
[II] N#CCNC(=O)[C@@H]1CCCC[C@H]1CSc1ccc(F)cc1 (mixture of isomers)
q: Field: lower recorded Selectivity ratio (choose I or II ) I would appreciate it if you answered with the label of your choice.
a: II
